The reported measurements were obtained from the array DNA melting data of Ke et al. (doi:10.1101/2024.01.08.574731).

# reported Tm; entries follow
procedure text: melting temperature; fluorescence melt of hairpins on a sequencing array, two-state fit, raised by 9.35 °C to match UV melts
condition notes: sodium 0.088 M
Answer by giving the amount and then stating its unit.

Would you please look over these solved cases?
| monomer sequence | reported value |
| --- | --- |
| GATCGAAAGCTCGATC ((((((....)))))) | 48.7 °C |
| GCTGTGCCGAAAGGCAGC (((..(((....)))))) | 48.7 °C |
| GAACCCGGAAACAGGTTC (((((.(....).))))) | 40 °C |
| GACTCCGAAAGGAGTGTC ((((((....)))..))) | 58.4 °C |

Next sequence, Tm to be filled in.
INPUT: Which Tm value belongs to GATCTTGGAAACAAGATC (((((((....))))))) ?
OUTPUT: 55.9 °C

====

procedure text: folding enthalpy; higher = less favourable; fluorescence melt of hairpins on a sequencing array, two-state fit
condition notes: sodium 0.088 M
measured quantity: folding enthalpy

| monomer sequence | folding enthalpy |
| --- | --- |
| GGAAACGAAAGTTGTTCC ((((((....)))..))) | -9.91 kcal/mol |
| GATTATGCGAAAGCAATC (((..(((....)))))) | -9.91 kcal/mol |
| GATCAGACTCTGATC ((((((...)))))) | -35 kcal/mol |
| GATCGATGGTCGATC ((((((...)))))) | -29.4 kcal/mol |
| GTCAGGGGAAACTCTGGC (.(((.(....).))).) | -24.5 kcal/mol |

INPUT: Which folding enthalpy value belongs to GGTAAGGGAAACCTTGCC ((.((((....)))).)) ?
OUTPUT: -29.6 kcal/mol

INPUT: Which folding enthalpy value belongs to GCAAGCGGAAACGCTCAC (..((((....))))..) ?
OUTPUT: -9.17 kcal/mol

INPUT: Which folding enthalpy value belongs to GGCGGAGGAAACTCCACC ((.((((....)))).)) ?
OUTPUT: -33.6 kcal/mol

INPUT: Which folding enthalpy value belongs to GACGGACCGAAAGGTGTC (((..(((....)))))) ?
OUTPUT: -17.9 kcal/mol

INPUT: Which folding enthalpy value belongs to GTGCACCGAAAGGTTCAC (((.(((....))).))) ?
OUTPUT: -42 kcal/mol

INPUT: Which folding enthalpy value belongs to GCTTGACGAAAGTCTAGC (((.(((....))).))) ?
OUTPUT: -35.2 kcal/mol

INPUT: Which folding enthalpy value belongs to GCGGTGACGAAAGTCCGC (((..(((....)))))) ?
OUTPUT: -30.8 kcal/mol

INPUT: Which folding enthalpy value belongs to GCTGGCGAAAGCCTTAGC ((((((....)))..))) ?
OUTPUT: -15.1 kcal/mol

INPUT: Which folding enthalpy value belongs to GCGGCGTCCCGC ((((....)))) ?
OUTPUT: -14.5 kcal/mol

INPUT: Which folding enthalpy value belongs to GCTTTCGGAAACGAGAGC (((.(((....))).))) ?
OUTPUT: -47 kcal/mol

====

procedure text: melting temperature; fluorescence melt of hairpins on a sequencing array, two-state fit, raised by 9.35 °C to match UV melts
condition notes: sodium 0.088 M
# reported Tm; entries follow
Quick note: give the figure in °C, leave out the unit.

| monomer sequence | result unit | reported value |
| --- | --- | --- |
| GATCCTCGCCAGGATC ((((((....)))))) | °C | 50.7 |
| GAAGTCCGAAAGGAATTC (((.(((....))).))) | °C | 50.1 |

INPUT: Which Tm value belongs to GATCAGTCTTCTGATC ((((((....)))))) ?
OUTPUT: 51.2

====

procedure text: melting temperature; fluorescence melt of hairpins on a sequencing array, two-state fit, raised by 9.35 °C to match UV melts
condition notes: sodium 0.088 M
measured quantity: Tm (°C)
Quick note: give the figure in °C, leave out the unit.

| monomer sequence | result unit | Tm |
| --- | --- | --- |
| GATCAGCTACCTGATC ((((((....)))))) | °C | 48.9 |
| GGTAAACGAAAGTTGACC (((.(((....))).))) | °C | 49.4 |

INPUT: Which Tm value belongs to GCTCTTGGAAACAGGAGC ((((.((....)).)))) ?
OUTPUT: 48.9

INPUT: Which Tm value belongs to GAATACGCGAAAGCGTTC (((..(((....)))))) ?
OUTPUT: 26.7

INPUT: Which Tm value belongs to GTAAGCGAAAGCTGTAC ((((((....))).))) ?
OUTPUT: 43

INPUT: Which Tm value belongs to GACGCCGAAAGGCTGTC ((((((....))).))) ?
OUTPUT: 56.9

INPUT: Which Tm value belongs to GTCGATCCGAAAGGAGAC (((..(((....)))))) ?
OUTPUT: 40

INPUT: Which Tm value belongs to GCACCCCGAAAGGGATGC (((.(((....))).))) ?
OUTPUT: 57.5

INPUT: Which Tm value belongs to GCACTAGGAAACTGGTGC ((((.((....)).)))) ?
OUTPUT: 52.9

INPUT: Which Tm value belongs to GCATTACGAAAGTACTGC (((.(((....))).))) ?
OUTPUT: 46.4

INPUT: Which Tm value belongs to CGTACGGAAACGTTCACG ((((((....)))..))) ?
OUTPUT: 39

INPUT: Which Tm value belongs to GCGAACGTTCGC ((((....)))) ?
OUTPUT: 55.8

====

procedure text: folding enthalpy; higher = less favourable; fluorescence melt of hairpins on a sequencing array, two-state fit
condition notes: sodium 0.088 M
measured quantity: folding enthalpy (kcal/mol)
Quick note: give the figure in kcal/mol, leave out the unit.

Would you please look over these solved cases?
| monomer sequence | result unit | folding enthalpy |
| --- | --- | --- |
| GCGGCGCGAAAGCCTCGC (((..((....))..))) | kcal/mol | -18.6 |
| GATCTTTCCGAAGATC ((((((....)))))) | kcal/mol | -33.1 |
| CGCGGACTGTCCGCG ((((((...)))))) | kcal/mol | -42.3 |
| GCATCGGGAAACCGACAC (..((((....))))..) | kcal/mol | -11.9 |
| GATCTAGTTGTAGATC ((((((....)))))) | kcal/mol | -28.2 |

INPUT: Which folding enthalpy value belongs to GCCGAGCGAAAGCCAGGC (((..((....))..))) ?
OUTPUT: -24

INPUT: Which folding enthalpy value belongs to GCTATCGAAAGATCTAGC ((((((....)))..))) ?
OUTPUT: -11.8

INPUT: Which folding enthalpy value belongs to GAGTTACGAAAGTACCTC (((.(((....))).))) ?
OUTPUT: -24.6

INPUT: Which folding enthalpy value belongs to GGATGTGGAAACGCATCC (((((.(....).))))) ?
OUTPUT: -41.4

INPUT: Which folding enthalpy value belongs to AACAAGAAATTGTT (((((....))))) ?
OUTPUT: -7.18

INPUT: Which folding enthalpy value belongs to GACGGCGCGAAAGCGGTC (((..(((....)))))) ?
OUTPUT: -9.91

INPUT: Which folding enthalpy value belongs to CGTCCGGAAACGGCCACG ((((((....)))..))) ?
OUTPUT: -13

INPUT: Which folding enthalpy value belongs to GGTGACGAAAGTCGGACC ((((((....)))..))) ?
OUTPUT: -15.8

INPUT: Which folding enthalpy value belongs to GTGCACGGAAACGTGCGC (.(((((....))))).) ?
OUTPUT: -14.7

INPUT: Which folding enthalpy value belongs to CGGGCGGAAACGCATCCG ((((((....)))..))) ?
OUTPUT: -15.9

====

procedure text: folding enthalpy; higher = less favourable; fluorescence melt of hairpins on a sequencing array, two-state fit
condition notes: sodium 0.088 M
measured quantity: folding enthalpy (kcal/mol)
Quick note: give the figure in kcal/mol, leave out the unit.

INPUT: Which folding enthalpy value belongs to GCAGCACGAAAGTGTTGC (((.(((....))).))) ?
OUTPUT: -37.2

INPUT: Which folding enthalpy value belongs to GATCGGAATCCGATC ((((((...)))))) ?
OUTPUT: -34.8

INPUT: Which folding enthalpy value belongs to GCCCGCGAAAGCGTCGGC ((((((....)))..))) ?
OUTPUT: -17.9

INPUT: Which folding enthalpy value belongs to GCTACAGGAAACTGCAGC (((.(((....))).))) ?
OUTPUT: -28.3

INPUT: Which folding enthalpy value belongs to GATCTCGGACGAGATC ((((((....)))))) ?
OUTPUT: -35.1

INPUT: Which folding enthalpy value belongs to CGTACCCGGAAACGGACG (((..(((....)))))) ?
OUTPUT: -12.3

INPUT: Which folding enthalpy value belongs to GCTTCGCGAAAGCAACGC ((.(.((....)).).)) ?
OUTPUT: -10

INPUT: Which folding enthalpy value belongs to GCTTCGGGAAACTGAGGC ((.((.(....).)).)) ?
OUTPUT: -28.8
